- System: OVCAR-8 ovarian
- Assay Name: NCI tumour cell line growth inhibition, 48 h; in the data active = GI50 below about 0.43 µM; inactive = the rest
Output constraint: value belongs to active, inactive

Known results for molecules:
Oc1ccc(/C=N\Nc2ccccn2)c(O)c1
inactive
OCc1cn(Cc2cccc(Cl)c2)c2ccccc12
inactive
C=C1C(=O)O[C@H]2[C@H]1CC/C(COC(=O)NCc1cc3ccccc3[nH]1)=C\CC[C@@]1(C)O[C@@H]21
inactive
O=c1cccc(C#CC#C[C@H]2O[C@@H]2CO)o1
active
O=C(/C=C/c1cccnc1)NCCCCC1CCN(C(=O)c2ccccc2)CC1
active
C[C@@H]1C=C(CCCCCCCCCCC[C@H](O)[C@@H]2CCC(=O)O2)C(=O)O1
inactive
Cc1ccc2c(c1)nc(C(=O)c1ccco1)c(C(F)(F)F)[n+]2[O-]
inactive
Cc1cn(C2CC(F)C(CO)O2)c(=O)[nH]c1=O (stereo not drawn)
inactive
C(=N\Nc1ccccn1)/c1ccccn1
active
CC1=C(/C=C/C(C)=C\C=C\C(C)=C\C(=O)Nc2ccc3c(c2)OCO3)C(C)(C)CCC1
inactive

Q. Just curious, what result did "COc1ccc(-n2c(SCc3cc(OC)c(OC)c(OC)c3)nc3ccc(C)cc3c2=O)c(OC)c1" get here?
A. inactive

Q. Cool, now CC(CN(CP(=O)([O-])[O-])CP(=O)([O-])[O-])N(CP(=O)([O-])[O-])CP(=O)([O-])[O-].N.N.[Pt+2] (stereo not drawn)
A. inactive

Q. Another molecule to look at: CSc1nc2c(c(=O)[nH]1)N=C1c3ccccc3C(=O)C1C(c1ccc(F)cc1)N2 (stereo not drawn)
A. inactive

----------
- System: K-562 leukemia
- Assay Name: NCI tumour cell line growth inhibition, 48 h
Please provide measured TGI for the entries that follow.

Solved cases (3 shown):
COc1ccc(/C=C/C(=O)c2cc3c(N)c(C(=O)Nc4ccccc4Cl)sc3nc2C)cc1
> 50 µM
C=C1C(=O)O[C@H]2[C@H]1CC/C(COC(=O)NCc1cc3ccccc3[nH]1)=C\CC[C@@]1(C)O[C@@H]21
9.18 µM
CC(=O)NCC1OC2COC(c3ccccc3)OC2C2N=C(c3ccccc3)OC12 (stereo not given)
> 100 µM

Parameter requested: TGI. Apply to each item below.
1. Oc1ccc(Cc2ccc(O)c3ncccc23)c2cccnc12
2. CCO[C@@H]1OC(=O)[C@](C)(C(C)=O)[C@@H]1C

A.
1: > 100 µM; 2: > 100 µM

----------
- Test system: 786-0 renal
- Assay Name: NCI tumour cell line growth inhibition, 48 h; in the data active = GI50 below about 0.43 µM; inactive = the rest
Assign a class; possible classes are TRUE = active, FALSE = inactive

OCCCCC#Cc1ccccc1C#Cc1ccccc1
FALSE
C(=N\Nc1ccccn1)/c1ccccn1
TRUE
[Cl][Bi]([O]c1ccccn1)[O]c1ccccn1
FALSE
COc1ccc(-n2c(SCc3cc(OC)c(OC)c(OC)c3)nc3ccc(C)cc3c2=O)c(OC)c1
FALSE

Now let's try a different one.
Q. For CC1=C([Se]CC(OC(=O)CC[Se]c2ccccc2)C(=O)NCCCCCC(=O)OCc2ccccc2)C(=O)c2ccccc2C1=O (stereo not drawn) , what call appears in the results of this test?
A. FALSE

----------
- System: SNB-19 CNS
- Assay Name: NCI tumour cell line growth inhibition, 48 h
Task for the reader: assign each of the following compounds its reported TGI.

Consider the following illustrative entries.
COc1ccccc1NC(=O)CSC(N)=O
> 100 µM
CCOC(=O)CC(=O)Sc1ccccc1
> 100 µM
CCOc1ccc(N=Cc2cccc3cccnc23)cc1
> 100 µM
O=C(O)Cn1ncn(NC(=O)Cc2ccccc2)c1=S
> 10 µM
Nc1ccccc1C#C/C=C\C#Cc1ccccc1C(F)(F)F
58.7 µM
Cc1c(C#N)cccc1-c1cc(-c2cn(Cc3cccc(C(C)(C)O)n3)nn2)nc(N)n1
> 100 µM

Now look at this entry.
Q. Could you tell me which TGI is on file for "COc1ccc(C=C2C(=O)OC(C)(C)OC2=O)cc1OC" ?
A. > 100 µM

----------
- Test system: SR leukemia
- Assay Name: NCI tumour cell line growth inhibition, 48 h
So I've got a bunch of compounds here, and I need their TGI values.

COC(=O)c1c(C)cccc1C1CN=NC12Cc1cccc(C)c1C2=O (stereo unspecified)
> 100 µM
CCN(CC)c1ccc(/C=C\c2cc(C)c3cc(C)ccc3n2)cc1
> 100 µM
CC(C)C(=O)/C=C/c1ccccc1
> 100 µM
COC(=O)NC(Nc1ccc(C)cc1)(C(F)(F)F)C(F)(F)F
> 100 µM
O=C(c1ccccc1)c1ccc2nc(-c3c(Cl)c(Cl)c(Cl)c(Cl)c3C(=O)Nc3ccco3)[nH]c2c1
58.8 µM

Batch of 2 compounds: report TGI for each.
1. O=Cc1c(-c2cc(O)ccc2O)nc2sccn12
2. CCOC(=O)c1c(SCCN2CCCCC2)n(-c2ccccc2)c(=S)n(-c2ccccc2)c1=O

A.
["3.42 µM", "> 20.4 µM"]

Consider the following items and state reported TGI for each.
1. Cc1cn([C@@H]2C[C@](C)(CO)N(C)O2)c(=O)[nH]c1=O
2. O=c1cccc(C#CC#C[C@H]2O[C@@H]2CO)o1
3. N#Cc1c(C(=O)c2ccccc2)cnn1-c1ccccc1
4. CC(C)CCCC(C)[C@H]1CC[C@H]2NCCCC[C@]12C (stereo partly specified)
5. COc1ccc(C2C3=CONC3CC3CCCCC32)cc1 (stereo unspecified)
6. COc1ccc(-n2c(SCc3cc(OC)c(OC)c(OC)c3)nc3ccc(C)cc3c2=O)c(OC)c1
7. CCOC(=O)/C(C1=N[C@H](C(=O)OCC)CS1)=C(\O)c1ccccc1
8. COc1ccccc1-[n+]1cc(-c2ccc(-c3ccccc3)cc2)n2c1CCCCC2

A.
1. > 100 µM
2. > 100 µM
3. > 25 µM
4. 6.23 µM
5. > 100 µM
6. 25.5 µM
7. > 100 µM
8. 24.1 µM

Can you give me TGI for all of these, one by one?
1. COc1cc(Nc2nc3cc(N)cc(N)c3nc2-c2ccccc2)cc(OC)c1
2. C=C1[C@@H](C)[C@H]2[C@H](Cc3ccccc3)NC(=O)[C@]23OC(=O)/C=C/[C@H](O)CCC[C@@H](C)C/C=C/[C@H]3[C@@H]1O
3. COc1ccc2c3c([nH]c2c1)-c1nc2ccccc2c(=O)n1CC3

A.
["> 100 µM", "> 100 µM", "> 25 µM"]

Batch: TGI for all items listed.
1. COc1cc2oc(=O)ccc2cc1C1OC(=O)C2OC21C (stereo unspecified)
2. COC(C/C=C\C=C\CC/C=C/CC(C)/C=C/C(=C\C(=O)O)CC(=O)O)/C(C)=C\C=C(/C)C(=O)O (stereo unspecified)
3. CC(C)N(C(=O)C12C3C4C5(C#N)C3C1(I)C5C42I)C(C)C (stereo unspecified)

A.
> 100 µM
> 100 µM
> 100 µM

----------
- Tested on: CCRF-CEM leukemia
- Assay Name: NCI tumour cell line growth inhibition, 48 h
Test Readout: TGI

# per-item lookup of TGI; items listed below
1. C=C1[C@@H](C)[C@H]2[C@H](Cc3ccccc3)NC(=O)[C@]23OC(=O)/C=C/[C@H](O)CCC[C@@H](C)C/C=C/[C@H]3[C@@H]1O
2. CCCCN(CCCC)C1=Nc2ccccc2-n2c(nnc2C(=O)OCC)C1
3. C/C(=C\COP(=O)(O)OP(=O)(O)O)CC/C=C(\C)CNc1ccccc1
4. COC(=O)C1=C(C)N(NC(N)=O)C2(N)N(NC(N)=O)C(C)=C(C(=O)OC)C12C(=O)OC (configuration not stated)
5. O=C(O)c1cc(Nc2c(O)c3c(c(O)c2Cl)C(=O)C=CC3=O)ccc1O

A.
57.4 µM
> 100 µM
10.3 µM
> 100 µM
> 10 µM

Below is a list of compounds. For each, state its recorded TGI.
1. OCc1cn(Cc2cccc(Cl)c2)c2ccccc12
2. O=C1/C(=C/C=C/c2ccccc2)CCC1CNc1ccc(Br)cc1 (configuration not stated)
3. Cc1cn(C2CC(SCCO)C(CO)O2)c(=O)[nH]c1=O (configuration not stated)
4. C(=N\Nc1ccccn1)/c1ccccn1
5. CCOC(=O)NC(OCc1ccccc1)(C(=O)OC)C(F)(F)F (configuration not stated)

A.
1: > 69.8 µM; 2: > 100 µM; 3: > 100 µM; 4: > 100 µM; 5: > 100 µM

----------
So I've got a bunch of compounds here, and I need their TGI values.
- Test system: RXF 393 renal
- Assay Name: NCI tumour cell line growth inhibition, 48 h
Answers are plain numbers, in µM.

c1cc2c3c(c1)[C@@H]1O[C@@H]1c1cccc(c1-3)[C@@H]1O[C@H]21
17.2
CCn1c(SCc2nnc(Nc3ccccc3)s2)nc2ccccc2c1=O
19.1
O=[N+]([O-])c1cccc([N+](=O)[O-])c1Cl
38.3
COC(CC1(CCNc2ccccc2)C(=O)N(COCC[Si](C)(C)C)c2ccccc21)OC (stereo unspecified)
29.4

// batch mode: one TGI value per listed entry
1. CCCCCCCCCCC[N+]1(Cc2ccccc2)CC2CCN(Cc3ccccc3)CC2C1 (stereo unspecified)
2. COc1cc(Nc2nc3cc(N)cc(N)c3nc2-c2ccccc2)cc(OC)c1
3. O=C(/C=C/c1ccc(OCC(=O)N2CCN(c3ccccc3)CC2)cc1)c1ccc(Cl)cc1
4. CCC1(O)CC(O)c2c(O)c3c(c(O)c2C1C(=O)OC)C(=O)c1cccc(O)c1C3=O (stereo unspecified)
5. COCCn1cc(-c2csc(-c3c[nH]c4ccccc34)n2)c2cccnc21
6. CC(=O)OC1C(=O)C(O)C(C)OC1O[C@@H]1C[C@@]2(C)[C@@H]3CC=C4[C@@H](C[C@H](O)C(=O)C4(C)C)[C@]3(C)C(=O)C[C@]2(C)[C@H]1[C@@](C)(O)C(=O)/C=C/C(C)(C)O (stereo partly specified)

A.
1. 1.95
2. 18.8
3. 55.1
4. 23.5
5. 64.3
6. 1.43

Hey, just so you know, these numbers are from PubChem BioAssay (NCI).
